Items are presented alongside their recorded IC (TGI).
Test system: M14
test method notes: NCI 60 cell panel SRB screen
Type: cell-based
cond: Homo sapiens, M14, read-out: TGI
parameter: IC (TGI) (µM)

[[record]]
compound = "O=C(Nc1ccccc1)Nc1ccc(Oc2nnc(Cl)c3ccccc23)cc1 [Compound 13a]"
comparison_sign = ">"
val = 25

[[record]]
compound = "COc1cccc(NCc2nnc(Nc3ccc(Cl)cc3)c3ccccc23)c1 [Compound 16d]"
comparison_sign = "="
val = 4.69

[[record]]
compound = "O=C(Nc1ccc(Cl)cc1)Nc1ccc(Oc2nncc3ccccc23)cc1"
comparison_sign = "="
val = 3.16

[[record]]
compound = "O=C(Nc1ccc(Cl)cc1)Nc1ccc(Nc2nncc3ccccc23)cc1"
comparison_sign = "="
val = 11.5

[[record]]
compound = "Clc1ccc(Nc2nnc(CNc3ccccc3)c3ccccc23)cc1 [Compound 16a]"
comparison_sign = "="
val = 6.65

[[record]]
compound = "Cc1nnc(Nc2ccc(NC(=O)Nc3ccc(Cl)cc3)cc2)c2ccccc12"
comparison_sign = "="
val = 3.57

[[record]]
compound = "Clc1ccc(Nc2nnc(COc3ccccc3)c3ccccc23)cc1 [Compound 17a]"
comparison_sign = "="
val = 5.03


###

Test system: HOP-92
test method notes: NCI 60 cell panel SRB screen
Type: cell-based
cond: Homo sapiens; HOP-92, 5 log dose
Decide using IC (TGI): a value greater than or equal to 7 µM is condition met, a smaller one is condition not met.

[[record]]
compound = "Clc1ccc(Nc2nnc(COc3ccccc3)c3ccccc23)cc1 [Compound 17a]"
classification = "condition not met"

[[record]]
compound = "O=C(Nc1ccc(Cl)cc1)Nc1ccc(Oc2nncc3ccccc23)cc1 [Compound 7b]"
classification = "condition not met"

[[record]]
compound = "Clc1ccc(Nc2nnc(CNc3ccccc3)c3ccccc23)cc1 [Compound 16a]"
classification = "condition not met"

[[record]]
compound = "Cc1nnc(Nc2ccc(NC(=O)Nc3ccc(Cl)cc3)cc2)c2ccccc12 [Compound 6e]"
classification = "condition not met"

[[record]]
compound = "O=C(Nc1ccccc1)Nc1ccc(Oc2nnc(Cl)c3ccccc23)cc1 [Compound 13a]"
classification = "condition met"

[[record]]
compound = "O=C(Nc1ccc(Cl)cc1)Nc1ccc(Nc2nncc3ccccc23)cc1 [Compound 6b]"
classification = "condition met"

[[record]]
compound = "COc1cccc(NCc2nnc(Nc3ccc(Cl)cc3)c3ccccc23)c1 [Compound 16d]"
classification = "condition not met"


###

Test system: IGROV1
test method notes: NCI 60 cell panel SRB screen
Format: cell-based
cond: Homo sapiens, IGROV-1; IGROV1, 5 log dose
parameter: GI50 (µM)

[[record]]
compound = "COc1cccc(NCc2nnc(Nc3ccc(Cl)cc3)c3ccccc23)c1 [Compound 16d]"
experimental_system = "IGROV1"
parameter = "GI50"
val = 0.9

[[record]]
compound = "O=C(Nc1ccc(Cl)cc1)Nc1ccc(Oc2nncc3ccccc23)cc1 [Compound 7b]"
experimental_system = "IGROV1"
parameter = "GI50"
val = 1.16

[[record]]
compound = "Clc1ccc(Nc2nnc(CNc3ccccc3)c3ccccc23)cc1 [Compound 16a]"
experimental_system = "IGROV1"
parameter = "GI50"
val = 1.93

[[record]]
compound = "O=C(Nc1ccc(Cl)cc1)Nc1ccc(Nc2nncc3ccccc23)cc1 [Compound 6b]"
experimental_system = "IGROV1"
parameter = "GI50"
val = 2.52

[[record]]
compound = "Cc1nnc(Nc2ccc(NC(=O)Nc3ccc(Cl)cc3)cc2)c2ccccc12 [Compound 6e]"
experimental_system = "IGROV1"
parameter = "GI50"
val = 3.98

[[record]]
compound = "O=C(Nc1ccccc1)Nc1ccc(Oc2nnc(Cl)c3ccccc23)cc1 [Compound 13a]"
experimental_system = "IGROV1"
parameter = "GI50"
val = 3.32

[[record]]
compound = "Clc1ccc(Nc2nnc(COc3ccccc3)c3ccccc23)cc1 [Compound 17a]"
experimental_system = "IGROV1"
parameter = "GI50"
val = 1.14

